Cited source: patent US11066414B2

Target: Human Cot (Homo sapiens (Human), UniProt P41279)
Sequence (P41279 30-397): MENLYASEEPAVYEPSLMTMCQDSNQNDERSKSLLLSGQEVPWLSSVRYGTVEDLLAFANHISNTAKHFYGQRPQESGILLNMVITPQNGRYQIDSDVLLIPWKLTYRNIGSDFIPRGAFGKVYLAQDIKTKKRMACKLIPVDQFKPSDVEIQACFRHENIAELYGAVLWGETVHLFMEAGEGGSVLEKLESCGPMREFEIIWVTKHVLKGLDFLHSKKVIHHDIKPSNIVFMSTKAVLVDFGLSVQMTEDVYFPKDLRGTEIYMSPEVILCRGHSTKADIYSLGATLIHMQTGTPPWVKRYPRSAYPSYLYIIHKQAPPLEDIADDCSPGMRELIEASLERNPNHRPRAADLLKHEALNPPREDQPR
Assay: High Throughput Cot Biochemical Assay
Details: IC50 HTRF, Cot HTRF (TR-FRET) biochemical assay
assay.readout: IC50 (nM)

1. CC1(C)COCCC1Nc1c(C#N)cnc2c(C#N)cc(N[C@H](c3cn(C4(C(F)(F)F)CC4)nn3)c3cccc4ncsc34)cc12 (some centres unmarked) [Example 452]
4

(1) Cc1nc(F)ccc1[C@H](Nc1cc(Cl)c2ncc(C#N)c(NCC(C)(C)C)c2c1)c1cn(C(C)(C)C(F)(F)F)nn1 [Example 541]
(2) Cc1nc(F)ccc1[C@H](Nc1cc(Cl)c2ncc(C#N)c(NCC(C)(C)C)c2c1)c1cn(C2(C(N)=O)CC2)nn1 [Example 477]
(3) Cc1nc(F)ccc1[C@H](Nc1cc(Cl)c2ncc(C#N)c(NCC(C)(C)C)c2c1)c1cn(CC(F)F)nn1 [Example 532]
(4) CCN1Cc2ccc([C@H](Nc3cc(Cl)c4ncc(C#N)c(Nc5ccc(F)c(Cl)c5)c4c3)c3c[nH]nn3)cc2C1 [Example 53]
Sort entries by IC50 from minimum to maximum value. Labels, requested order. 2, 3, 1, 4
(2: 2 nM, 3: 3 nM, 1: 6 nM, 4: 81 nM)

(P) CCc1nc(F)ccc1[C@H](Nc1cc(Cl)c2ncc(C#N)c(NCC(C)(C)C)c2c1)c1cn(C2(C(F)F)CC2)nn1 [Example 592]
(Q) N#Cc1cnc2c(Cl)cc(N[C@@H](c3cscn3)c3cn(CCO)nn3)cc2c1Nc1ccc(F)c(Cl)c1 [Example 356]
(R) Cc1nc(F)ccc1[C@H](Nc1cc(C#N)c2ncc(C#N)c(NCC(C)(C)C)c2c1)c1cn(C2(C#N)CCC2)nn1 [Example 491]
Order the records by IC50, with each subsequent value no larger than the one before. Give the order by naming the labels one after another as requested. P, R, Q

(I) CC(C)(C)CNc1c(C#N)cnc2c(Cl)cc(N[C@H](c3cn(C4(C#N)CC4)nn3)c3cccc4ncccc34)cc12 [Example 567]
(II) CCC1(n2cc([C@@H](Nc3cc(Cl)c4ncc(C#N)c(NCC(C)(C)C)c4c3)c3cccc4c(=O)n(C)ccc34)nn2)CC1 [Example 756]
(III) Cn1cc(C(Nc2cc(Cl)c3ncc(C#N)c(Nc4ccc(F)c(Cl)c4)c3c2)c2cn(C3CCNCC3)nn2)nn1 (centres unmarked) [Example 397]
(IV) C[C@@H](Nc1c(C#N)cnc2c(Cl)cc(N[C@@H](c3cccnc3)c3cn(C4CCN(C(C)(C)C)CC4)nn3)cc12)c1ccccc1 [Example 259]
Please order the records by their reported IC50, lowest number first. Please express your ranking as an ordered list of the labels. I, II, IV, III

(a) Cc1nc(F)ccc1[C@H](Nc1cc(C#N)c2ncc(C#N)c(NCC(C)(C)C)c2c1)c1cn(C23CC(C2)C3)nn1 [Example 649]
(b) Cn1ccc2c([C@H](Nc3cc(Cl)c4ncc(C#N)c(NCC(C)(C)C)c4c3)c3cn(C(C)(C)C)nn3)cccc2c1=O [Example 747]
(c) Cc1nc([C@H](Nc2cc(C#N)c3ncc(C#N)c(NCC(C)(C)C)c3c2)c2cn(C3(C(F)F)CC3)nn2)c(C)o1 [Example 674]
(d) [2H][C@](Nc1cc(Cl)c2ncc(C#N)c(Nc3cnc(F)c(F)c3)c2c1)(c1cccnc1)c1cn(-c2ccccc2)nn1 [Example 162]
(e) CC(C)n1cc([C@@H](Nc2cc(Cl)c3ncc(C#N)c(Nc4ccc(F)c(Cl)c4)c3c2)c2ccc3c(c2)CNCC3)nn1 [Example 50]
Rank descending by IC50. Arrange the labels as the request states and list them. e, c, d, b, a

----------
Test system: TNFα
Assay: Cot Monocyte TNFα Cell Based Assay
Details: Homo sapiens, Monocyte, read-out: EC50 TNF, LPS-stimulated human monocytes, TNFα
assay.readout: EC50 (nM)

Known EC50 results, listed for orientation:
1) Cc1nc(F)ccc1[C@H](Nc1cc(C#N)c2ncc(C#N)c(NCC(C)(C)C)c2c1)c1cn(C2(C(=O)N(C)C)CC2)nn1
182
2) CC[C@@H](Nc1c(C#N)cnc2c(Cl)cc(N[C@@H](c3cccnc3)c3c[nH]nn3)cc12)c1ccccc1
230
3) Cc1nc(F)ccc1[C@H](Nc1cc(C#N)c2ncc(C#N)c(NCC(C)(C)C)c2c1)c1nnn(C2CC2)c1Cl
98

(P) CC(C)(C)CNc1c(C#N)cnc2c(Cl)cc(N[C@H](c3cn(C4(C(F)(F)F)CC4)nn3)c3ccc(Cl)c4cnccc34)cc12
(Q) N#Cc1cnc2c(Cl)cc(N[C@H](c3cn(C4CC4)nn3)c3cnccc3Cl)cc2c1Nc1cnc(F)c(F)c1
(R) Cc1nc(F)ccc1[C@H](Nc1cc(C#N)c2ncc(C#N)c(NCC(C)(C)C)c2c1)c1cn(C2(CF)CC2)nn1
(S) CC(C)(C)CNc1c(C#N)cnc2c(C#N)cc(N[C@H](c3cn(C4(C(F)(F)F)CC4)nn3)c3cccn4nccc34)cc12
(T) Cn1ccc2c([C@H](Nc3cc(Cl)c4ncc(C#N)c(NCC(C)(C)C)c4c3)c3cn(C4(C(F)F)CC4)nn3)cccc21
Please give the order of these molecules when sorted by EC50, largest value leading. Returns: the labels arranged in the requested order. Q, T, P, S, R

----------
Tested on: TNFα
Assay: Cot Monocyte TNFα Cell Based Assay
Settings: Homo sapiens, Monocyte, read-out: EC50 TNF, LPS-stimulated human monocytes, TNFα
pEC50: −log10 of the molar value.
assay.readout: pEC50

1. CC[C@@H](Nc1c(C#N)cnc2c(Cl)cc(N[C@H](c3cn(C4(C(F)(F)F)CC4)nn3)c3ccc(F)nc3C)cc12)c1ccccc1 [Example 440]
6.77
2. N#Cc1cnc2c(Cl)cc(N[C@H](c3c[nH]nn3)c3cccnc3Cl)cc2c1Nc1cnc(F)c(F)c1 [Example 161]
5.78
3. Cc1nc(F)ccc1[C@H](Nc1cc(Cl)c2ncc(C#N)c(NCC(C)(C)C)c2c1)c1nnn(C2(C(F)F)CC2)c1I [Example 707]
6.64

(P) Cn1nccc1[C@H](Nc1cc(Cl)c2ncc(C#N)c(Nc3cnc(F)c(F)c3)c2c1)c1c[nH]nn1 [Example 165]
(Q) CC(C)(C)CNc1c(C#N)cnc2c(C#N)cc(N[C@H](c3cn(C4(C(F)(F)F)CC4)nn3)c3cccc4cnccc34)cc12 [Example 470]
Thinking about recorded pEC50 values, which is higher, P or Q ? Write down the label of the entry you select. Q

(I) Cc1nc(F)ccc1[C@H](Nc1cc(Cl)c2ncc(C#N)c(NCC(C)(C)C)c2c1)c1cn(C(C)(C)C(F)F)nn1 [Example 545]
(II) N#Cc1cnc2c(Cl)cc(N[C@H](c3c[nH]nn3)c3csc4c3CCN(C3COC3)C4)cc2c1Nc1cccc(Cl)c1F [Example 246]
(III) N#Cc1cnc2c(Cl)cc(N[C@@H](c3cscn3)c3cn(C4COC4)nn3)cc2c1Nc1ccc(F)c(Cl)c1 [Example 363]
(IV) [2H][C@](Nc1cc(Cl)c2ncc(C#N)c(Nc3cnc(F)c(F)c3)c2c1)(c1cccnc1)c1c[nH]nn1 [Example 164]
Provide the items ranked by increasing pEC50. When ranking, write the labels in the order the request describes. IV, II, III, I

(a) Cc1ncccc1[C@H](Nc1cc(Cl)c2ncc(C#N)c(Nc3ccc(Cl)c(Cl)c3F)c2c1)c1cn(C2CCN(C(C)(C)C)CC2)nn1 [Example 233]
(b) CC(C)(C)CNc1c(C#N)cnc2c(Cl)cc(N[C@H](c3cn(C4(C(N)=O)CCC4)nn3)c3cccc4cnccc34)cc12 [Example 562]
Which gives the smaller pEC50 number: a or b ? When you have decided, please share the label of that item. b

----------
Molecular target: Human Cot (Homo sapiens (Human), UniProt P41279)
Test: High Throughput Cot Biochemical Assay
Conditions: IC50 HTRF, Cot HTRF (TR-FRET KinEASE) biochemical assay, 400 μM ATP
assay.readout: IC50 (nM)

Below, 3 compounds whose answers are already recorded.
1. CC(C)(C)CNc1c(C#N)cnc2c(C#N)cc(N[C@H](c3cn(C4(C(F)(F)F)CC4)nn3)c3cccc4c(=O)n(C(F)F)ccc34)cc12
9
2. CC(C)(C)CNc1c(C#N)cnc2c(C#N)cc(N[C@H](c3cn(C45CC(C4)C5)nn3)c3cccc4c(=O)[nH]ccc34)cc12
2
3. CC(C)(C)CNc1c(C#N)cnc2c(C#N)cc(N[C@H](c3cn(C4(C(F)F)CC4)nn3)c3cccc4c(=O)[nH]ccc34)cc12
2

(a) CC(C)(C)CNc1c(C#N)cnc2c(C#N)cc(N[C@H](c3cn(C4(C(F)(F)F)CC4)nn3)c3ccc(C#N)c4ncccc34)cc12
(b) CC(C)(C)CNc1c(C#N)cnc2c(C#N)cc(N[C@H](c3cn(C4(C(F)(F)F)CC4)nn3)c3cccc4c(=O)n(CC(F)F)ccc34)cc12
Lab note: check whether a or b shows the higher recorded IC50. Identify your selection by its label. a

(I) CCC(F)(F)Cn1cc([C@@H](Nc2cc(C#N)c3ncc(C#N)c(NCC(C)(C)C)c3c2)c2ccc(F)nc2C)nn1
(II) CC(C)(C)CNc1c(C#N)cnc2c(Cl)cc(N[C@H](c3cn(C4(C(F)(F)F)CC4)nn3)c3cccc4[nH]c(C(F)(F)F)nc34)cc12
(III) CC(C)(C)CNc1c(C#N)cnc2c(Cl)cc(N[C@H](c3cn(C4(C(F)(F)F)CC4)nn3)c3cccc4cnc(Cl)cc34)cc12
(IV) Cn1cccc([C@H](Nc2cc(Cl)c3ncc(C#N)c(NCC(C)(C)C)c3c2)c2cn(C3(C(F)(F)F)CC3)nn2)c1=O
// ascending sort on recorded IC50 List labels; respect the requested ordering. I, IV, III, II
(I: 7 nM, IV: 18 nM, III: 44 nM, II: 1820 nM)

(1) COc1cc([C@H](Nc2cc(Cl)c3ncc(C#N)c(NCC(C)(C)C)c3c2)c2cn(C3(C(F)(F)F)CC3)nn2)ccn1
(2) Cc1nc(F)ccc1[C@H](Nc1cc(C#N)c2ncc(C#N)c(NCC(C)(C)C(F)(F)F)c2c1)c1cn(C2(C)CC2)nn1
(3) Cn1ccc2c([C@H](Nc3cc(C#N)c4ncc(C#N)c(NCC(C)(C)C)c4c3)c3cn(C4(C)COC4)nn3)cccc2c1=O
Sort (3 compounds) by IC50: min first. Thanks in advance for listing the labels in the requested order. 3, 2, 1
(3: 1 nM, 2: 2 nM, 1: 64 nM)

(1) Cc1nc(F)ccc1[C@H](Nc1cc(C#N)c2ncc(C#N)c(NCC(C)(C)C)c2c1)c1nnn(C)c1F
(2) Cc1nc(F)ccc1[C@H](Nc1cc(C#N)c2ncc(C#N)c(NCC(C)(C)C)c2c1)c1nnn(C23CC(C2)C3)c1F
(3) COc1c([C@@H](Nc2cc(Cl)c3ncc(C#N)c(NCC(C)(C)C)c3c2)c2ccc(F)nc2C)nnn1C1CC1
(4) Cn1ccc2c([C@H](Nc3cc(C#N)c4ncc(C#N)c(NCC(C)(C)C)c4c3)c3cn(C45CC(C4)C5)nn3)cccc2c1=O
// ranking: key=IC50, reverse=True The labels, placed in the requested order, form the answer. 2, 1, 3, 4
(2: 7 nM, 1: 4 nM, 3: 2 nM, 4: 1 nM)

(1) Cc1nc(F)ccc1[C@H](Nc1cc(Cl)c2ncc(C#N)c(NCC(C)(C)C(F)(F)F)c2c1)c1nnn([C@@H](C)CF)c1F
(2) Cc1nnc(C2(n3cc([C@@H](Nc4cc(Cl)c5ncc(C#N)c(NCC(C)(C)C)c5c4)c4ccc(F)nc4C)nn3)CC2)o1
(3) COc1c([C@@H](Nc2cc(C#N)c3ncc(C#N)c(NCC(C)(C)C)c3c2)c2ccc(F)nc2C)nnn1C1CC1
Hey, can you sort those compounds up there by IC50, smallest first? Please, when replying, give the labels in the order that was requested. 3, 2, 1

(1) CC(C)(C)CNc1c(C#N)cnc2c(C#N)cc(N[C@@H](c3ccc4cccnc4c3)c3cn(C4(C(F)F)CC4)nn3)cc12
(2) Cn1ccc2c([C@H](Nc3cc(C#N)c4ncc(C#N)c(NCC(C)(C)C(F)(F)F)c4c3)c3cn(C4(C(F)(F)F)CC4)nn3)cccc2c1=O
Lab note: check whether 1 or 2 shows the higher recorded IC50. Response format: the label of the selected entry. 1

(P) COc1c([C@@H](Nc2cc(Cl)c3ncc(C#N)c(NCC(C)(C)C)c3c2)c2ccc(F)nc2C)nnn1C
(Q) CC(C)(C)CNc1c(C#N)cnc2c(C#N)cc(N[C@H](c3cn(C4(C(F)(F)F)CC4)nn3)c3csc4cnccc34)cc12
Lab log: flag the item ( P or Q ) with the smaller IC50 figure. // caller expects the label of the chosen entry Q

(A) Cc1nc(F)ccc1[C@H](Nc1cc(C#N)c2ncc(C#N)c(NCC(C)(C)C)c2c1)c1cn(CC2(C)CC2)nn1
(B) CC(=O)c1cc(N[C@H](c2cn(C3(C(F)F)CC3)nn2)c2ccc(F)nc2C)cc2c(NCC(C)(C)C)c(C#N)cnc12
I'm curious whether A or B has the smaller IC50 number. Which is it? Please indicate the selected item by its label. A
